biological target: 5-hydroxytryptamine receptor 2A (Homo sapiens, UniProt P28223)
Sequence (P28223 whole entry): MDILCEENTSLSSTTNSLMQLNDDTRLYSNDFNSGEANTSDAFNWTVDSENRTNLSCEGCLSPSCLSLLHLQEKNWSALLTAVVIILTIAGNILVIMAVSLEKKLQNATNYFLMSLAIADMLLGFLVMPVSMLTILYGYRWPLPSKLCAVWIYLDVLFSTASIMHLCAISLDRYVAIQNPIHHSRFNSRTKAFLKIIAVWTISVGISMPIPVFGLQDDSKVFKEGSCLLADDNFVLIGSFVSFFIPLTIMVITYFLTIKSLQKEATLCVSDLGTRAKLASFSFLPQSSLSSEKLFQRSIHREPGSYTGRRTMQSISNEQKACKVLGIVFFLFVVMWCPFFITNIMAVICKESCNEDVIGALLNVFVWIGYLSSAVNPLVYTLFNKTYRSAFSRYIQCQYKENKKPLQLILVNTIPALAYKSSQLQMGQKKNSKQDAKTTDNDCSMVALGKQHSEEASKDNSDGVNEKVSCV
pKi: −log10 of the molar value.
Use 7 as the dividing line for pKi, with the line itself on the Fulfilled side and lower values as Not fulfilled.

Inquiry: Can `CC(=O)Nc1ccc(OCCCN2CCN(c3ccccn3)CC2)cc1` be said to have pKi at or above 7?
Reply text: Not fulfilled

Inquiry: Can `CC(=O)Nc1ccc(OCCCN2CCN(c3cccc(Cl)c3Cl)CC2)cc1` be said to have pKi at or above 7?
Reply text: Not fulfilled

Inquiry: Can `CC(=O)Nc1cccc(OCCCN2CCC(c3noc4cc(F)ccc34)CC2)c1` be said to have pKi at or above 7?
Reply text: Not fulfilled

Inquiry: Can `CC(=O)Nc1ccc(OCCCN2CCC(c3noc4cc(F)ccc34)CC2)cc1` be said to have pKi at or above 7?
Reply text: Fulfilled

Inquiry: Can `O=C(Nc1ccc(OCCCN2CCC(c3noc4cc(F)ccc34)CC2)cc1)c1ccccc1` be said to have pKi at or above 7?
Reply text: Not fulfilled

Inquiry: Can `CC(=O)Nc1ccc(OCCCN2CCC(c3noc4cc(F)ccc34)CC2)cc1F` be said to have pKi at or above 7?
Reply text: Fulfilled

Inquiry: Can `CC(=O)Nc1ccc(OCCN2CCC(c3noc4cc(F)ccc34)CC2)cc1` be said to have pKi at or above 7?
Reply text: Not fulfilled

Inquiry: Can `COc1ccccc1N1CCN(CCCOc2ccc(NC(C)=O)cc2)CC1` be said to have pKi at or above 7?
Reply text: Not fulfilled

Inquiry: Can `CC(=O)Nc1ccc(OCCCN2CCN(c3ncccn3)CC2)cc1` be said to have pKi at or above 7?
Reply text: Not fulfilled

====

Biological target: 5-hydroxytryptamine receptor 2C (Homo sapiens, UniProt P28335)
Sequence (P28335 whole entry): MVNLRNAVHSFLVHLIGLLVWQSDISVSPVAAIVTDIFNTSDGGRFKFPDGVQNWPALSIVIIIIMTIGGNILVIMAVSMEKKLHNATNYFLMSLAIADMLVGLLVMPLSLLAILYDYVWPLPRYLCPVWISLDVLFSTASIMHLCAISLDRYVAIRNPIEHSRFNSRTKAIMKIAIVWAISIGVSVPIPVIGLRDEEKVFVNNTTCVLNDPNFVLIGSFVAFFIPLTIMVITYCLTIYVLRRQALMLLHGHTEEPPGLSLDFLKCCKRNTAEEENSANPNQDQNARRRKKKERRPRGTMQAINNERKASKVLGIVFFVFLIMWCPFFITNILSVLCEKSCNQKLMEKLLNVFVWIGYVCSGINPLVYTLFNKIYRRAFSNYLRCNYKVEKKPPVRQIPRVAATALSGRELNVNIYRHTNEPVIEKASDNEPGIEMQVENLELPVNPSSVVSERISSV
measured quantity: pKi
Quick note: pKi values are minus log10 of concentrations in mol/L.

Inquiry: Look up and state reported pKi for `CC(=O)Nc1ccc(OCCCCN2CCC(c3noc4cc(F)ccc34)CC2)cc1`
Reply text: 6.73

====

target: UniProtKB P14416; assay: Binding affinity to D2 receptor (unknown origin)
Sequence (P14416 whole entry): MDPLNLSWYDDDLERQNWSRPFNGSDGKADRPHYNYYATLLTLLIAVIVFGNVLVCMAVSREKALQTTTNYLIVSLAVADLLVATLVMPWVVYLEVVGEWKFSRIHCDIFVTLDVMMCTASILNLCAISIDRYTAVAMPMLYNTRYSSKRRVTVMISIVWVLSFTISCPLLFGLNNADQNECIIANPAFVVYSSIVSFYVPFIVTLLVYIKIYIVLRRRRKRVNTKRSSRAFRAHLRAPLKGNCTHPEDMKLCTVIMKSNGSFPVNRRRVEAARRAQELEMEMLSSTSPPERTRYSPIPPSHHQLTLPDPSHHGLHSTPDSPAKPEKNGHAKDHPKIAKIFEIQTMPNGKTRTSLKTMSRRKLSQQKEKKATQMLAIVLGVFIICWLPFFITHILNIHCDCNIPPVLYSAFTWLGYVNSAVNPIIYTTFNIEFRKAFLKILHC
measured quantity: pKi
Quick note: pKi values are minus log10 of concentrations in mol/L.

Inquiry: For UniProtKB P14416, give pKi of the listed molecule: `CC(=O)Nc1ccc(OCCCN2CCC(c3noc4cc(F)ccc34)CC2)cc1F`
Reply text: 6.83

Inquiry: For UniProtKB P14416, give pKi of the listed molecule: `CC(=O)Nc1ccc(OCCCCN2CCC(c3noc4cc(F)ccc34)CC2)cc1`
Reply text: 5.94

Inquiry: For UniProtKB P14416, give pKi of the listed molecule: `CC(=O)Nc1ccc(OCCCN2CCN(c3nsc4ccccc34)CC2)cc1`
Reply text: 7.10

Inquiry: For UniProtKB P14416, give pKi of the listed molecule: `CC(=O)Nc1ccc(OCCCN2CCN(c3cccc4ccsc34)CC2)cc1`
Reply text: 7.79

Inquiry: For UniProtKB P14416, give pKi of the listed molecule: `CC(=O)NCc1ccc(OCCCN2CCC(c3noc4cc(F)ccc34)CC2)cc1`
Reply text: 5.80

Inquiry: For UniProtKB P14416, give pKi of the listed molecule: `CC(=O)Nc1ccc(OCCCN2CCC(c3noc4cc(F)ccc34)CC2)cc1C`
Reply text: 6.82

Inquiry: For UniProtKB P14416, give pKi of the listed molecule: `CC(=O)Nc1ccc(OCCCN2CCN(c3cccc(Cl)c3Cl)CC2)cc1`
Reply text: 6.78

Inquiry: For UniProtKB P14416, give pKi of the listed molecule: `COc1ccccc1N1CCN(CCCOc2ccc(NC(C)=O)cc2)CC1`
Reply text: 6.33

Inquiry: For UniProtKB P14416, give pKi of the listed molecule: `CC(=O)Nc1ccc(OCCCN2CCC(c3noc4cc(F)ccc34)CC2)cc1`
Reply text: 8.68

Inquiry: For UniProtKB P14416, give pKi of the listed molecule: CC(=O)Nc1ccc(OCC(O)CN2CCC(c3noc4cc(F)ccc34)CC2)cc1 (configuration not stated)
Reply text: 6.92

Inquiry: For UniProtKB P14416, give pKi of the listed molecule: `CC(=O)N(C)c1ccc(OCCCN2CCC(c3noc4cc(F)ccc34)CC2)cc1`
Reply text: 7.69

====

measured quantity: pKi
Quick note: pKi values are minus log10 of concentrations in mol/L.

Inquiry: For UniProt:P08913, give pKi of the listed compound: `CC(=O)Nc1ccc(OCCCCN2CCC(c3noc4cc(F)ccc34)CC2)cc1`
Sequence (P08913 whole entry): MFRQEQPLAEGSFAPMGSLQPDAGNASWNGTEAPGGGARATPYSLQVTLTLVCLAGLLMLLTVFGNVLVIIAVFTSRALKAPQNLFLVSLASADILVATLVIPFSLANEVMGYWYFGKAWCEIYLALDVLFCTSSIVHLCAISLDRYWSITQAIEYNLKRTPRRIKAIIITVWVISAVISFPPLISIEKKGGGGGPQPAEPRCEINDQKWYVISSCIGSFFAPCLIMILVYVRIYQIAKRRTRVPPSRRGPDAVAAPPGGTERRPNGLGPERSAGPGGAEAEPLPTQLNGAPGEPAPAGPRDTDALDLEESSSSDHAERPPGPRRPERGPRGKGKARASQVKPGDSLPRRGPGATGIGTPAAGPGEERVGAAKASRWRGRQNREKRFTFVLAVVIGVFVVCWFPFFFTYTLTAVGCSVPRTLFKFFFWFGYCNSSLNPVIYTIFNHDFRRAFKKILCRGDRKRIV
Reply text: 6.71

====

assay: Half life in rat at 3 mg/kg, iv; format: ADME, organism-based; conditions: in vivo
measured quantity: half-life (h)
// note: answer is a bare numeric in h

Inquiry: Look up and state reported half-life for `CC(=O)Nc1ccc(OCCCN2CCC(c3noc4cc(F)ccc34)CC2)cc1`
Reply text: 3.68

====

So I've got a bunch of molecules here, and I need their selectivity ratio values.
assay: Therapeutic index, ratio of ED50 for induction of catalepsy in po dosed mouse to ED50 for antipsychotic activity in po dosed mouse assessed as reduction in MK-801-induced hyperlocomotor activity; format: toxicity, organism-based; conditions: in vivo, read-out: Ratio ED50
Could you respond with only the numeric value?

Inquiry: Look up and state reported selectivity ratio for `CC(=O)Nc1ccc(OCCCN2CCC(c3noc4cc(F)ccc34)CC2)cc1`
Reply text: 133

Inquiry: Look up and state reported selectivity ratio for O=C(CCCN1CCC(O)(c2ccc(Cl)cc2)CC1)c1ccc(F)cc1 [HALOPERIDOL]
Reply text: 22.5

====

test: Therapeutic index, ratio of ED50 for induction of catalepsy in po dosed mouse to ED50 for antipsychotic activity in po dosed mouse assessed as suppression of apomorphine-induced climbing; type: toxicity, organism-based; details: in vivo, read-out: Ratio ED50
So I've got a bunch of molecules here, and I need their selectivity ratio values.
Could you respond with only the numeric value?

Inquiry: Look up and state reported selectivity ratio for `CC(=O)Nc1ccc(OCCCN2CCC(c3noc4cc(F)ccc34)CC2)cc1`
Reply text: 90

Inquiry: Look up and state reported selectivity ratio for `O=C(CCCN1CCC(O)(c2ccc(Cl)cc2)CC1)c1ccc(F)cc1`
Reply text: 6.8

====

experiment: AUC (0 to t) in rat at 10 mg/kg, po; type: ADME, organism-based; set-up: dose 10 mg/kg; conditions: in vivo
measured quantity: AUC(0-t)
Answer format: value, then unit.

Inquiry: Look up and state reported AUC(0-t) for `CC(=O)Nc1ccc(OCCCN2CCC(c3noc4cc(F)ccc34)CC2)cc1`
Reply text: 9490 ng·h/mL

====

assay: Apparent oral clearance in rat at 10 mg/kg, po; assay type: ADME, organism-based; conditions: in vivo
measured quantity: CL/F (mL/min)
// note: answer is a bare numeric in mL/min

Inquiry: Look up and state reported CL/F for `CC(=O)Nc1ccc(OCCCN2CCC(c3noc4cc(F)ccc34)CC2)cc1`
Reply text: 0.173

====

Target: 5-hydroxytryptamine receptor 1A (Homo sapiens)
Sequence (P08908 whole entry): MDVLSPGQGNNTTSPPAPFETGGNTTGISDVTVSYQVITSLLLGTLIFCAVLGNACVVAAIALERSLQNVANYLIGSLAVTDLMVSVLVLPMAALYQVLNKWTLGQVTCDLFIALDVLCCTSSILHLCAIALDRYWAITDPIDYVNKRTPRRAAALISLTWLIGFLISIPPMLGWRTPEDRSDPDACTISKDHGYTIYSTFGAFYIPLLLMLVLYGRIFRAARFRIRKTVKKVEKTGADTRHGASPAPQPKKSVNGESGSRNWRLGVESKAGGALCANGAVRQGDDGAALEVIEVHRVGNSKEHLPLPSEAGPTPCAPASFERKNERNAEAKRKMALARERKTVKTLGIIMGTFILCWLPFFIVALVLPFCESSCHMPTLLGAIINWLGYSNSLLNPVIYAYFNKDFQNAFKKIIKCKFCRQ
measured quantity: pKi
Quick note: pKi values are minus log10 of concentrations in mol/L.

Inquiry: Look up and state reported pKi for `CCC(=O)Nc1ccc(OCCCN2CCC(c3noc4cc(F)ccc34)CC2)cc1`
Reply text: 7.12

Inquiry: Look up and state reported pKi for `CC(=O)NCc1ccc(OCCCN2CCC(c3noc4cc(F)ccc34)CC2)cc1`
Reply text: 5.67

Inquiry: Look up and state reported pKi for CC(=O)Nc1ccc(OCC(O)CN2CCC(c3noc4cc(F)ccc34)CC2)cc1 (stereo not given)
Reply text: 6.81

Inquiry: Look up and state reported pKi for `CC(=O)Nc1ccc(OCCCCN2CCC(c3noc4cc(F)ccc34)CC2)cc1`
Reply text: 5.91

Inquiry: Look up and state reported pKi for `CC(=O)Nc1ccc(OCCCN2CCN(c3ccccn3)CC2)cc1`
Reply text: 5.70

Inquiry: Look up and state reported pKi for `CC(=O)Nc1ccc(OCCCN2CCN(c3cccc4ccsc34)CC2)cc1`
Reply text: 6.59

Inquiry: Look up and state reported pKi for `CC(=O)N(C)c1ccc(OCCCN2CCC(c3noc4cc(F)ccc34)CC2)cc1`
Reply text: 7.67
